# Tested on: 485176-168-R4-J1-PDC spheroids with HUVEC/MSC, viability;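 further: spheroids exposed to compounds for seven days before readout; percent viability relative to DMSO vehicle control wells as 100%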
# EXPERIMENTAL PROTOCOL: Anticancer human tumor 485176-168-R4-J1-PDC patient-derived pancreatic adenocarcinoma cell line growth inhibition [GQUAD]
# DETAILS: second compound 0.316 µM; first compound 3.16 µM; stronger effect = lower value

- COMPOUND: "C#Cc1c(F)ccc2cc(O)cc(-c3ncc4c(N5CC6CCC(C5)N6)nc(OCC56CCCN5CC(F)C6)nc4c3F)c12 (stereo unspecified) + CN(C)c1ccc(Nc2c3ccc(NC(=O)CCN4CCCC4)cc3nc3cc(NC(=O)CCN4CCCC4)ccc23)cc1"
  UNIT INFO: "%"
  viability, T/C: 95.5
- COMPOUND: "CC1COCCN1c1cc(C2(O)CC3CCC(C2)O3)c2cnn(-c3ccn[nH]3)c2n1 (stereo unspecified) + Cc1[nH]c2ccc(F)cc2c1-c1nc2c3cccnc3c3ncccc3c2[nH]1"
  UNIT INFO: "%"
  viability, T/C: 11.9
- COMPOUND: "C=CC(=O)N1CCN(c2nc(=O)n(-c3c(C)ccnc3C(C)C)c3nc(-c4c(O)cccc4F)c(F)cc23)C(C)C1 (stereo unspecified) + CN(C)c1ccc(Nc2c3ccc(NC(=O)CCN4CCCC4)cc3nc3cc(NC(=O)CCN4CCCC4)ccc23)cc1"
  UNIT INFO: "%"
  viability, T/C: 119
- COMPOUND: "CC1COCCN1c1cc(C2(O)CC3CCC(C2)O3)c2cnn(-c3ccn[nH]3)c2n1 (stereo unspecified) + Cc1cnc(CNC(=O)c2c(=O)c3ccc(N4CCCN(C)CC4)nc3n3c2sc2ccccc23)cn1"
  UNIT INFO: "%"
  viability, T/C: 10.9
- COMPOUND: "CC1COCCN1c1cc(-c2ccnn2C)c2ccnc(-c3ccn[nH]3)c2n1 (stereo unspecified) + CN(C)c1ccc(Nc2c3ccc(NC(=O)CCN4CCCC4)cc3nc3cc(NC(=O)CCN4CCCC4)ccc23)cc1"
  UNIT INFO: "%"
  viability, T/C: 9.46
- COMPOUND: "COc1ccc([C@@H](O)c2cc(-c3ncnc4cc(N5CCOCC5)ccc34)c(F)cc2Cl)nn1 + CN(C)c1ccc(Nc2c3ccc(NC(=O)CCN4CCCC4)cc3nc3cc(NC(=O)CCN4CCCC4)ccc23)cc1"
  UNIT INFO: "%"
  viability, T/C: 62.9
- COMPOUND: "O=c1[nH]cc(F)c(=O)[nH]1 + Cc1cnc(CNC(=O)c2c(=O)c3ccc(N4CCCN(C)CC4)nc3n3c2sc2ccccc23)cn1"
  UNIT INFO: "%"
  viability, T/C: 35.1
- COMPOUND: "CC1COCCN1c1cc(C2(S(C)(=N)=O)CC2)nc(-c2ccnc3[nH]ccc23)n1 (stereo unspecified) + Cc1[nH]c2ccc(F)cc2c1-c1nc2c3cccnc3c3ncccc3c2[nH]1"
  UNIT INFO: "%"
  viability, T/C: 35.2
- COMPOUND: "CC(C)n1c(=O)n(C)c2cnc3cc(F)c(-c4ccc(OCCCN5CCCCC5)nc4)cc3c21 + Cc1cnc(CNC(=O)c2c(=O)c3ccc(N4CCCN(C)CC4)nc3n3c2sc2ccccc23)cn1"
  UNIT INFO: "%"
  viability, T/C: 34.5
- COMPOUND: "O=C(NO)c1cnc(N2CCN(S(=O)(=O)c3ccc4ccccc4c3)CC2)nc1 + Cc1[nH]c2ccc(F)cc2c1-c1nc2c3cccnc3c3ncccc3c2[nH]1"
  UNIT INFO: "%"
  viability, T/C: 0.2
- COMPOUND: "C=CC(=O)N1CCN(c2nc(=O)n(-c3c(C)ccnc3C(C)C)c3nc(-c4c(O)cccc4F)c(F)cc23)C(C)C1 (stereo unspecified) + Cc1[nH]c2ccc(F)cc2c1-c1nc2c3cccnc3c3ncccc3c2[nH]1"
  UNIT INFO: "%"
  viability, T/C: 111
- COMPOUND: "O=C(c1cc(Cc2n[nH]c(=O)c3ccccc23)ccc1F)N1CCN(C(=O)C2CC2)CC1 + CN(C)c1ccc(Nc2c3ccc(NC(=O)CCN4CCCC4)cc3nc3cc(NC(=O)CCN4CCCC4)ccc23)cc1"
  UNIT INFO: "%"
  viability, T/C: 105
- COMPOUND: "COc1cc(C2c3cc4c(cc3C(OC3OC5COC(C)OC5C(O)C3O)C3COC(=O)C23)OCO4)cc(OC)c1O (stereo unspecified) + Cc1cnc(CNC(=O)c2c(=O)c3ccc(N4CCCN(C)CC4)nc3n3c2sc2ccccc23)cn1"
  UNIT INFO: "%"
  viability, T/C: 24.3
- COMPOUND: "CC(C)n1c(=O)n(C)c2cnc3cc(F)c(-c4ccc(OCCCN5CCCCC5)nc4)cc3c21 + CN(C)c1ccc(Nc2c3ccc(NC(=O)CCN4CCCC4)cc3nc3cc(NC(=O)CCN4CCCC4)ccc23)cc1"
  UNIT INFO: "%"
  viability, T/C: 94.5
- COMPOUND: "CCCS(=O)(=O)Nc1ccc(F)c(C(=O)c2c[nH]c3ncc(-c4ccc(Cl)cc4)cc23)c1F + Cc1cnc(CNC(=O)c2c(=O)c3ccc(N4CCCN(C)CC4)nc3n3c2sc2ccccc23)cn1"
  UNIT INFO: "%"
  viability, T/C: 57.8
- COMPOUND: "CCCS(=O)(=O)Nc1ccc(F)c(C(=O)c2c[nH]c3ncc(-c4ccc(Cl)cc4)cc23)c1F + Cc1[nH]c2ccc(F)cc2c1-c1nc2c3cccnc3c3ncccc3c2[nH]1"
  UNIT INFO: "%"
  viability, T/C: 80.1
- COMPOUND: "CC1COCCN1c1cc(C2(O)CC3CCC(C2)O3)c2cnn(-c3ccn[nH]3)c2n1 (stereo unspecified) + CN(C)c1ccc(Nc2c3ccc(NC(=O)CCN4CCCC4)cc3nc3cc(NC(=O)CCN4CCCC4)ccc23)cc1"
  UNIT INFO: "%"
  viability, T/C: 9.72
- COMPOUND: "COc1ccc([C@@H](O)c2cc(-c3ncnc4cc(N5CCOCC5)ccc34)c(F)cc2Cl)nn1 + Cc1cnc(CNC(=O)c2c(=O)c3ccc(N4CCCN(C)CC4)nc3n3c2sc2ccccc23)cn1"
  UNIT INFO: "%"
  viability, T/C: 29.5
- COMPOUND: "C#Cc1c(F)ccc2cc(O)cc(-c3ncc4c(N5CC6CCC(C5)N6)nc(OCC56CCCN5CC(F)C6)nc4c3F)c12 (stereo unspecified) + Cc1[nH]c2ccc(F)cc2c1-c1nc2c3cccnc3c3ncccc3c2[nH]1"
  UNIT INFO: "%"
  viability, T/C: 99.1
- COMPOUND: "CC(C)(O)C1CCC(Nc2ccc3ncc(-c4cccc(C(F)(F)F)c4)n3n2)CC1 (stereo unspecified) + Cc1[nH]c2ccc(F)cc2c1-c1nc2c3cccnc3c3ncccc3c2[nH]1"
  UNIT INFO: "%"
  viability, T/C: 58
- COMPOUND: "O=C(c1cc(Cc2n[nH]c(=O)c3ccccc23)ccc1F)N1CCN(C(=O)C2CC2)CC1 + Cc1cnc(CNC(=O)c2c(=O)c3ccc(N4CCCN(C)CC4)nc3n3c2sc2ccccc23)cn1"
  UNIT INFO: "%"
  viability, T/C: 54.2
